Please consider the recorded pKd for Purine nucleoside phosphorylase (Mycobacterium tuberculosis) in what follows.
pKd: −log10 of the molar value.

Compound	System tested	pKd
Sc1ncnc2nc[nH]c12 [MERCAPTOPURINE ANHYDROUS]	Purine nucleoside phosphorylase (Mycobacterium tuberculosis)	4.10
CSc1ncnc2c1ncn2[C@@H]1O[C@H](CO)[C@@H](O)[C@H]1O	Purine nucleoside phosphorylase (Mycobacterium tuberculosis)	4.90
O=c1[nH]c(=O)c2c[nH]nc2[nH]1	Purine nucleoside phosphorylase (Mycobacterium tuberculosis)	3.10
Nc1nc2c(ncn2COCCO)c(=O)[nH]1	Purine nucleoside phosphorylase (Mycobacterium tuberculosis)	4.90
Nc1nc(O)c2ncn(COC(CO)CO)c2n1	Purine nucleoside phosphorylase (Mycobacterium tuberculosis)	4.80
CSc1nc(N)nc2[nH]cnc12	Purine nucleoside phosphorylase (Mycobacterium tuberculosis)	3.50
Oc1ncnc2[nH]ncc12	Purine nucleoside phosphorylase (Mycobacterium tuberculosis)	3.00
